- MEASUREMENT TARGET: Cholecystokinin receptor type A (Cavia porcellus, UniProt Q63931)
MEASURE NAME: IC50 (nM)

[A] Cc1ccc2c(c1)N(CC(=O)NC(C)(C)C)C(=O)[C@H](NC(=O)Nc1cccc(C(=O)Nc3nnn[nH]3)c1)C[C@@H]2c1ccccc1
[B] Cc1ccc2c(c1)N(CC(=O)NC(C)(C)C)C(=O)[C@H](NC(=O)Nc1cccc(C(=O)O)c1)C[C@@H]2C1CCCCC1 (stereo in doubt; 5k)
Enquiry: Determine, for A and B , which has the greater value of IC50. Indicate which entry you chose by stating its label.
Return: B

[I] Cc1ccc2c(c1)N(CC(=O)NC(C)(C)C)C(=O)[C@H](NC(=O)Nc1cccc(-c3nnn[nH]3)c1)C[C@@H]2C(C)C
[II] Cc1ccc2c(c1)N(CC(=O)NC(C)(C)C)C(=O)[C@H](NC(=O)Nc1cccc(C(=O)O)c1)C[C@@H]2c1ccccc1
Enquiry: Determine, for I and II , which has the greater value of IC50. Indicate which entry you chose by stating its label.
Return: II
(II: 4200 nM, I: 250 nM)

----------
- MEASUREMENT TARGET: Cholecystokinin receptor type A (Cavia porcellus)
- Sequence (Q63931 whole entry): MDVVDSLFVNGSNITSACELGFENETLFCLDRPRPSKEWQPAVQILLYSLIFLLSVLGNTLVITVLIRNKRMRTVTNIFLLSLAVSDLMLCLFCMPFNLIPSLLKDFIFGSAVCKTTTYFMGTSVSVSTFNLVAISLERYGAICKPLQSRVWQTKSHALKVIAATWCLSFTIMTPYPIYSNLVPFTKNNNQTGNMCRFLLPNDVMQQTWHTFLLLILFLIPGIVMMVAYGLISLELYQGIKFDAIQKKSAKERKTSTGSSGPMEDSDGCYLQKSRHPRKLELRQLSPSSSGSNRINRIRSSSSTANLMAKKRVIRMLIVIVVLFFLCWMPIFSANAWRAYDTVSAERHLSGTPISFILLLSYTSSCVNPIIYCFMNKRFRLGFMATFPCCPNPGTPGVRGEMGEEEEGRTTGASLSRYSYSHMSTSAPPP
MEASURE NAME: IC50 (nM)

Solved cases (2 shown):
• Cc1ccc2c(c1)N(CC(=O)NC(C)(C)C)C(=O)[C@H](NC(=O)Nc1cccc(C(=O)NS(=O)(=O)C(F)(F)F)c1)C[C@@H]2c1ccccc1 = 320
• Cc1ccc2c(c1)N(CC(=O)NC(C)(C)C)C(=O)[C@H](NC(=O)Nc1cccc(C(=O)NS(=O)(=O)Cc3ccccc3)c1)C[C@@H]2c1ccccc1 = 730

[I] Cc1ccc2c(c1)N(CC(=O)NC(C)(C)C)C(=O)[C@H](NC(=O)Nc1cccc(-c3nnn[nH]3)c1)C[C@@H]2c1ccccc1
[II] Cc1ccc2c(c1)N(CC(=O)NC(C)(C)C)C(=O)[C@H](NC(=O)Nc1cccc(C(=O)NS(=O)(=O)c3ccccc3C)c1)C[C@@H]2c1ccccc1
Enquiry: Please indicate which item has the smaller measured IC50: I versus II Indicate which entry you chose by stating its label.
Return: I

Provenance of the data: ChEMBL document CHEMBL1128613
